protocolDetails: Cell Viability - LYMP2-004 (AID 966);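 also: cells exposed to compound for 24 h; nearly all actives have a fitted effect of over 65% in size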; also: potency is read from the fitted curve at half-maximal effect
assayConditions: LYMP2-004 lymphoblastoid cell viability, qHTS; series mostly up to 92.2 µM
Records with an inconclusive call do not appear. Activity calls are given as the source filed them. Calls follow the shape of the dose curve; as a rule, active = well fitted cell-killing curve with a large enough effect; inconclusive = small, poorly fitted or top-dose-only effect, or effect the other way; inactive = no such curve, though single readings can be large or run the other way.
endpointName: Potency

Example compounds with recorded Potency:
- smilesRepr: "Nc1ccc(O)c(C(=O)O)c1"
  reportedMeasurement: "inactive"
- smilesRepr: "Nc1ccc([N+](=O)[O-])cc1O"
  reportedMeasurement: "inactive"
- smilesRepr: "N=C1N=C(N)c2cc3ccccc3cc21"
  reportedMeasurement: "39.8 µM (active)"
- smilesRepr: "COc1cc(CNC(=O)CCCC/C=C/C(C)C)ccc1O"
  reportedMeasurement: "inactive"
- smilesRepr: "COc1cc(/C=C/C(=O)CC(=O)/C=C/c2ccc(O)c(OC)c2)ccc1O"
  reportedMeasurement: "31.6 µM (active)"
- smilesRepr: "C#C[C@]1(O)CC[C@H]2[C@@H]3CCc4cc(O)ccc4[C@H]3CC[C@@]21C"
  reportedMeasurement: "inactive"
- smilesRepr: "CCCCCCCCCCCCCCCCCC(=O)O"
  reportedMeasurement: "inactive"
- smilesRepr: "CC1(C)S[C@@H]2[C@H](NC(=O)[C@H](N)c3ccccc3)C(=O)N2[C@H]1C(=O)O"
  reportedMeasurement: "inactive"

As a next step, examine the compound that follows.
Name the recorded Potency of the item CN(C)c1ccc(N=NS(=O)(=O)O)cc1 in your answer.
inactive

----------
protocolDetails: A High-Content qHTS Against Drug Library for the Identification of Small Molecules that Inhibit DYT1 Early Onset Primary Dystonia-Associated Cell Pathology (AID 1645839)
assayConditions: HEK293 Flp-In EGFP-delE TorsinA, punctate imaging, 48 h; series mostly up to 46.1 µM
Results filed as inconclusive are left out. Calls of active or inactive are those of the source. Calls follow the shape of the full dose curve.
Your answer must be one of the following: y (active), n (inactive)

Here's what some known entries look like.
- compound: "CC1(C)S[C@@H]2[C@H](NC(=O)[C@H](N)c3ccccc3)C(=O)N2[C@H]1C(=O)O"
  classification: "n"
- compound: "Clc1ccccc1-c1nc(-c2ccncc2)no1"
  classification: "n"
- compound: "O=C(O)Cc1ccc(-c2ccccc2)cc1"
  classification: "n"
- compound: "CCCCCCCCCCCC(=O)[O][Sn]([CH2]CCC)([CH2]CCC)[O]C(=O)CCCCCCCCCCC"
  classification: "n"

Just curious, what result did O=Cc1ccc(O)c(O)c1O get here?
n

Just curious, what result did CCCCCCCC/C=C/C(=O)O get here?
n

Just curious, what result did O=C(Nc1ccc(C(=O)O)c(O)c1)c1ccccc1 get here?
n

Just curious, what result did CC(C(=O)O)c1ccc(C(=O)c2cccs2)cc1 (stereo unspecified) get here?
n

Just curious, what result did Oc1c(Br)cc(Br)c2cccnc12 get here?
y

Just curious, what result did CCCCCCOc1ccccc1C(N)=O get here?
n

Just curious, what result did Nc1ccc(O)c(C(=O)O)c1 get here?
n

Just curious, what result did CC(=O)SCC(CC(=O)c1ccc(C)cc1)C(=O)O (stereo unspecified) get here?
n

Just curious, what result did CCOc1ccc2nc(S(N)(=O)=O)sc2c1 get here?
n

Just curious, what result did NCCO get here?
n

Just curious, what result did c1ccc(CCNc2nc(-c3ccccc3)cs2)cc1 get here?
n

Just curious, what result did CCC1C(=O)OCC1Cc1cncn1C (stereo unspecified) get here?
n

Just curious, what result did COc1cc2c3cc1Oc1cc(ccc1O)C[C@@H]1c4c(cc(OC)c(O)c4Oc4ccc(cc4)C[C@@H]3N(C)CC2)CC[N+]1(C)C get here?
n

Just curious, what result did C[N+]1(C)[C@@H]2CC(OC(=O)[C@H](CO)c3ccccc3)C[C@H]1[C@@H]1O[C@@H]12 (stereo partly specified) get here?
n

Just curious, what result did CC(C)(C)c1nnc(NS(=O)(=O)c2ccc(N)cc2)s1 get here?
n

Just curious, what result did O=C(O)Cc1ccc2c(c1)C(=O)c1ccccc1CO2 get here?
n

Just curious, what result did CC(C(=O)O)c1ccc(C(=O)c2ccccc2)s1 (stereo unspecified) get here?
n

Just curious, what result did Cc1ccc(O)c(-n2nc3ccccc3n2)c1 get here?
n

Just curious, what result did CC(=O)c1ccc(OCC(=O)N2CCCCC2)cc1 get here?
n

Just curious, what result did O=C(CCN1CCN(CCO)CC1)N1c2ccccc2Sc2ccc(C(F)(F)F)cc21 get here?
n

Just curious, what result did c1ccc2sc(SSc3nc4ccccc4s3)nc2c1 get here?
n

Just curious, what result did CC(C(=O)O)c1ccc2c(c1)[nH]c1ccc(Cl)cc12 (stereo unspecified) get here?
n
